Ref: patent US20260042731A1

tested on: Chenopodium album (CHEAL), common lambsquarters; test: Postemergence herbicide evaluation, growth of Chenopodium album (CHEAL); type: in vivo; conditions: Chenopodium album, post-emergence, 168 h, 560 g ae/ha, 7 DAA, percent reduction in plant size relative to untreated control; read-out: Ave. CHEAL
propertyName: pest or weed control at 560 g/ha (%)
I only need the number, in %, no unit after it.

Reference set (6 entries):
                    compoundstructurestring  unitstext  value
0     O=C(Cc1ccccc1)NOC(=O)COc1ccc(Cl)cc1Cl          %     65
1           O=C(COc1ccc(Cl)cc1Cl)NOc1ccccc1          %     68
2      CC(=O)/C(C)=N/OC(=O)COc1ccc(Cl)cc1Cl          %     70
3   CN(NC(=O)COc1ccc(Cl)cc1Cl)C(=O)c1ccccc1          %     65
4  O=C(COc1ccc(Cl)cc1Cl)O/N=C/c1ccc(/C=N/OC(=O)COc2ccc(Cl)cc2Cl)cc1          %     68
5  Cn1c(O)c(C(=O)COc2ccc(Cl)cc2Cl)c2ccccc21          %      0

Which measured pest or weed control at 560 g/ha value corresponds to `C/C(N)=N/OC(=O)COc1ccc(Cl)cc1Cl` ?
68

Ok, now `Cc1ccc(S(=O)(=O)NC(=O)COc2ccc(Cl)cc2Cl)cc1`
73

Ok, now `CCOC(=O)C(=NOC(=O)COc1ccc(Cl)cc1Cl)C(=O)OCC`
70

Ok, now `Cc1cc(OC(=O)COc2ccc(Cl)cc2Cl)n(C)n1`
70
